Where do the numbers come from? From patent US9388147B2.

# test.system: S1P2 (Homo sapiens)
# Sequence (O95136 whole entry, species assumed): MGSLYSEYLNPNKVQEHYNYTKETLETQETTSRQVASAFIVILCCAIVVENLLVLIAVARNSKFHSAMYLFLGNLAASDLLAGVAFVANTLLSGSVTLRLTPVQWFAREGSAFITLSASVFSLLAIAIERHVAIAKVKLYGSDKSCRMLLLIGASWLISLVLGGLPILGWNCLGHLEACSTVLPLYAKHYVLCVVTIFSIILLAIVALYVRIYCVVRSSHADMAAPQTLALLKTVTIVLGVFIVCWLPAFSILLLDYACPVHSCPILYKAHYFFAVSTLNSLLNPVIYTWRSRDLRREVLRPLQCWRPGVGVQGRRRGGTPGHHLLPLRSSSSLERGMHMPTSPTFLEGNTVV
# run.description: Specificity over other S1P receptors: S1P2 CRE-bla CHOK1 reporter assay
# applied.conditions: S1P2 CRE-bla CHOK1, without Forskolin; read-out: S1P2 agonist value (EC50)
Where a name gives a salt, the structure may show the parent alone.
reported.endpoint: EC50

Use these answered entries as a reference point.
COCCS(=O)(=O)N[C@@H]1CCc2c(-c3noc(-c4ccc(OC(C)C)c(C#N)c4)n3)cccc21    > 10 µM
CC(C)Oc1ccc(-c2nc(-c3cccc4c3CC[C@H]4N)no2)cc1C#N [Compound 49, hydrochloride]    1.08 µM
CCOc1ccc(-c2nc(-c3cccc4c3CCC4NCCO)no2)cc1OCC (racemic) [Compound 253, reference compound]    > 1 µM

Looking up "CC(C)Oc1ccc(-c2nc(-c3cccc4c3CC[C@H]4NS(=O)(=O)CCO)no2)cc1C#N" , I found its EC50 recorded as 1.57 µM

The molecule identified as CC(C)Oc1ccc(-c2nc(-c3cccc4c3CC[C@H]4NCC(=O)N(C)C)no2)cc1C#N [Compound 90, hydrochloride] registered its EC50 at 6.66 µM

Query "COCCS(=O)(=O)N[C@H]1CCc2c(-c3noc(-c4ccc(OC(C)C)c(C#N)c4)n3)cccc21" yields EC50 of > 10 µM
